Assay System: T1, human C-MET His tagged, monomeric (human, UniProt P08581 25-932)
T1 construct: also called monomeric human C-MET; biotinylated human C-MET-His
T1 sequence (P08581 25-932): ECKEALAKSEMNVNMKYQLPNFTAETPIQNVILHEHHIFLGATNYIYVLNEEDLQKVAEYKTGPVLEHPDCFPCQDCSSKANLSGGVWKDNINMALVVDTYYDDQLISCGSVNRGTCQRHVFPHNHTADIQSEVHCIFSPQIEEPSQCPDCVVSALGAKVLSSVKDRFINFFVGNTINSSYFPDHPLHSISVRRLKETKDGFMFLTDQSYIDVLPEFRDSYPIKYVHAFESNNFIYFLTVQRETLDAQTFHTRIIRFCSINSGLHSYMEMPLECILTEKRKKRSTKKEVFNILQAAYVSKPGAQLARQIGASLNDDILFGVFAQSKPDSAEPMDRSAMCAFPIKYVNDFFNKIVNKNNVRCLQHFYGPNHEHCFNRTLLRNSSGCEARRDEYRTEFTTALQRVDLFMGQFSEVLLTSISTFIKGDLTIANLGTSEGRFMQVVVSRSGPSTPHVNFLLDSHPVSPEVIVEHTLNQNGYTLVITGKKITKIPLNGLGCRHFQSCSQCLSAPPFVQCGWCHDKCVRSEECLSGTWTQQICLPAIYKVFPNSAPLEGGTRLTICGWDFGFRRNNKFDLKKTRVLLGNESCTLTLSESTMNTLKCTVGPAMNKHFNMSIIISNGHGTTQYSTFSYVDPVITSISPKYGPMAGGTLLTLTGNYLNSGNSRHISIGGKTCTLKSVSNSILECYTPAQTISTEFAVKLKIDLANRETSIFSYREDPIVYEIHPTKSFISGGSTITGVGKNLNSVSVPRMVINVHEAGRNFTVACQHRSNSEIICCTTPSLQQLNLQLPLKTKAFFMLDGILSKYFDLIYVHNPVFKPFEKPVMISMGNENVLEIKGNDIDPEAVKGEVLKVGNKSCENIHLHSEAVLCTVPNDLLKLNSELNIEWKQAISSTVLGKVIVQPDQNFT
Method Description: SPR Biacore, IgG captured, monomeric C-MET-His analyte
# kon per entry
Please state the figure in M⁻¹ s⁻¹; there is no need to write the unit.

INSERT INTO assay_data (binder, quantity_unit, recorded_result) VALUES
  ('MH7-1 (antibody, human IgG4, V domains shown) VH: QVQLVQSGAEVKKPGASVKVSCKASGYTFTSYTMHWVRQAPGQGLEWMGIINPSGGSTSYAQKFQGRVTMTRDTSTSTVYMELSSLRSEDTAVYYCARQEITTEFDYWGQGTLVTVSS VL: EIVLTQSPGTLSLSPGERATLSCRASQSVSSYANSYLHWYQQKPGQAPRLLIYRGSTRETGIPDRFSGSGSGTDFTLTISRLEPEDFAVYYCQQSKSEPLTFGGGTKVEIK', 'M⁻¹ s⁻¹', 97900),
  ('MH12 (antibody, IgG4, V domains shown) VH: QVQLVQSGAEVKKPGASVKVSCKASGYTFTSYAMHWVRQAPGQGLEWMGWINPSGGSTSYAQKFQGRVTMTRDTSTSTVYMELSSLRSEDTAVYYCARQEITTEFDYWGQGTLVTVSS VL: EIVLTQSPGTLSLSPGERATLSCRASQSVSSYAQSYLHWYQQKPGQAPRLLIYRGSTRETGIPDRFSGSGSGTDFTLTISRLEPEDFAVYYCQQYGSSPLTFGGGTKVEIK', 'M⁻¹ s⁻¹', 56000);

Incoming: Please look up its kon: MH1 (antibody, IgG4, V domains shown) VH: QVQLVQSGAEVKKPGASVKVSCKASGYTFTSYTMHWVRQAPGQGLEWMGWINPNGGSTSYAQKFQGRVTMTRDTSTSTVYMELSSLRSEDTAVYYCARQEITTEFDYWGQGTLVTVSS VL: EIVLTQSPGTLSLSPGERATLSCRASQSVSSYANSYLHWYQQKPGQAPRLLIYRGSTRESGIPDRFSGSGSGTDFTLTISRLEPEDFAVYYCQQSKSEPLTFGGGTKVEIK
Outgoing: 94700
